- Test system: Staphylococcus epidermidis
- Protocol summary: Antibacterial activity against methicillin-resistant Staphylococcus epidermidis isolate cpu2623 after 18 to 20 hrs by agar dilution method
- Type: functional
Define the label as rule met when MIC is strictly less than 0.5 µg/mL and as rule not met in all remaining cases.

Sample answers from the record:
C=C[C@]1(C)C[C@@H](OC(=O)CSCc2csc(NC(=O)CN(CC)CC)n2)[C@]2(C)[C@H](C)CC[C@]3(CCC(=O)[C@H]32)[C@@H](C)[C@@H]1O; rule met
CC1(C)S[C@@H]2[C@H](NC(=O)[C@H](N)c3ccc(O)cc3)C(=O)N2[C@H]1C(=O)O [AMOXICILLIN]; rule not met
C=C[C@]1(C)C[C@@H](OC(=O)CSCc2csc(N)n2)[C@]2(C)[C@H](C)CC[C@]3(CCC(=O)[C@H]32)[C@@H](C)[C@@H]1O; rule met
C=C[C@]1(C)C[C@@H](OC(=O)CSCc2csc(NC(=O)CNC3CCCCC3)n2)[C@]2(C)[C@H](C)CC[C@]3(CCC(=O)[C@H]32)[C@@H](C)[C@@H]1O; rule met
C=C[C@]1(C)C[C@@H](OC(=O)CSCc2csc(NC(=O)CN3CCCCC3)n2)[C@]2(C)[C@H](C)CC[C@]3(CCC(=O)[C@H]32)[C@@H](C)[C@@H]1O; rule met
C=C[C@]1(C)C[C@@H](OC(=O)CSCc2csc(NC(=O)CN(CCCC)CCCC)n2)[C@]2(C)[C@H](C)CC[C@]3(CCC(=O)[C@H]32)[C@@H](C)[C@@H]1O; rule not met

Here's the next entry for you.
Is 0.5 µg/mL strictly greater than the molecule's reported MIC? molecule: C=C[C@]1(C)C[C@@H](OC(=O)CSCCN(CC)CC)[C@]2(C)[C@H](C)CC[C@]3(CCC(=O)[C@H]32)[C@@H](C)[C@@H]1O [TIAMULIN]
rule not met
